B1: Pre-mRNA-processing factor 40 homolog B, residues 274 to 332; numbered along this chain, Q6NWY9 (parent)
chain: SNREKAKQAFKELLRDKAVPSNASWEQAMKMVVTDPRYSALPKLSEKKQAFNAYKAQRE

- Variants of: B1
- TEST_DESCRIPTION: abundance fitness (aPCA) (normalised: wild type 0, dead -1); higher = more abundant; growth selection in yeast, the domain comes from the species named
- TEST_CONDITIONS: Homo sapiens

RESIDUE_CHANGE	abundance fitness
D16F	-1.05
Y38T	-0.136
V33Y	-0.269
M29Y	-0.014
S45D	-0.097
Q27I	-0.301
V32T	-0.094
K47M	-0.497
R58A	0.188
K47T	-0.447
K47V	-0.644
